B1: TPR t1 (parent)
chain: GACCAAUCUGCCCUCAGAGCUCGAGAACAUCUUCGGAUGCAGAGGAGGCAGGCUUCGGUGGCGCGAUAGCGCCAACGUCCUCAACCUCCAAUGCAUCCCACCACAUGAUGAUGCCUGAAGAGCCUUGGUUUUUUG

Variants of: B1
Assay: polymerase ribozyme fitness, log enrichment relative to wild type (log ratio); higher = more active; in vitro selection for triplet polymerase activity
The variants listed here are annotated with their polymerase ribozyme fitness (log ratio).

In plain terms, GACCAAUCUGUCCUCAGAGCUCGAGAACAUCUUCGGAUGCAGAGGAGGCAGGCUUCGGUGGCGCGAUAGCGCCAACGUCCUCAACCUCCAAUGCAGCCCACCACAUGAUGAUGCCUGAAGAGCCUUGGUUUUUUG [C11U U96G] has a documented polymerase ribozyme fitness (log ratio) of -1.1

In plain terms, GACCAAUCUGCCCUCAGAGCUCGAGAACAUCUUCGGAUGCAGAGGAGACAGGCUUCGGUGGCGCGAUAGCGCCAACGUCCUCAACCACCAAUGCAUCCCACCACAUGAUGAUGCCUGAAGAGCCUUGGUUUUUUG [G48A U87A] has a documented polymerase ribozyme fitness (log ratio) of -0.877

In plain terms, GACCAAUCUGCCCUCAGAGCUCGAGAACAUCUUCGGAUGCAGAGGAGGCAGGCUUCGGUGUCGCGAUAGCGCCAACGUCCUCAACAUCCAAUGCAUCCCACCACAUGAUGAUGCUUGAAGAGCCUUGGUUUUUUG [G61U C86A C115U] has a documented polymerase ribozyme fitness (log ratio) of -1.4

In plain terms, GACCAAUCUGCCCUCACAGCUCGAGAACAUCUUCGGAUGCAGAGGAGGCAGGCUUCGGUGGCGCGAUAUCGCCAACGUCCUCAACCUCCAAUGCAUCCCACCACAUGAUGAUGCCUGAAGAACCUUGGUUUUUUG [G17C G69U G122A] has a documented polymerase ribozyme fitness (log ratio) of -2.46

In plain terms, GGCCAAUCUGCCCUCAGAGCUCGAGAACAUCUUCGGAUGCAGAGGAGGCAGGCUUCGGUGGCGCGAUAGCGCCAACGUCCUCAACCUCCAAUGCAUCCCACCACAUGAUAAUGCCUGAAGAGCAUUGGUUUUUUG [A2G G110A C124A] has a documented polymerase ribozyme fitness (log ratio) of -0.428

In plain terms, GACCAAUCUGCCCUCAGAGCUCGAGAACAUCUUCGGAUGCAGAGGCGGCAGGCUUCGGUGGCGCGAUAGCGGCAACGUCCUCAACCUCCAAUGCAUCCCACCACAUGAUGAUGCCUGAAGAGCCUUGGUUUUUUG [A46C C72G] has a documented polymerase ribozyme fitness (log ratio) of -2.19

In plain terms, GACCAAUCUGCCCUCAGAGCUCGAGAACAUCUUCGGUUGCAGAGGAGGCACGCUUCGGUGGCGCGAUAGCGCCAACGUGCUCAACCUCCAAUGCAUCCCACCACAUGAUGAUGCCUGGAGAGCCUUGGUUUUUUG [A37U G51C C79G A118G] has a documented polymerase ribozyme fitness (log ratio) of -3.37

This collection of values is drawn from the RNAGym collection of RNA variant scans (doi:10.1073/pnas.2313332121).
